- target: T1, EBOV GPCL on cleaved VSV-GP particles (Ebola virus (EBOV), UniProt Q05320 33-676)
- T1 sequence: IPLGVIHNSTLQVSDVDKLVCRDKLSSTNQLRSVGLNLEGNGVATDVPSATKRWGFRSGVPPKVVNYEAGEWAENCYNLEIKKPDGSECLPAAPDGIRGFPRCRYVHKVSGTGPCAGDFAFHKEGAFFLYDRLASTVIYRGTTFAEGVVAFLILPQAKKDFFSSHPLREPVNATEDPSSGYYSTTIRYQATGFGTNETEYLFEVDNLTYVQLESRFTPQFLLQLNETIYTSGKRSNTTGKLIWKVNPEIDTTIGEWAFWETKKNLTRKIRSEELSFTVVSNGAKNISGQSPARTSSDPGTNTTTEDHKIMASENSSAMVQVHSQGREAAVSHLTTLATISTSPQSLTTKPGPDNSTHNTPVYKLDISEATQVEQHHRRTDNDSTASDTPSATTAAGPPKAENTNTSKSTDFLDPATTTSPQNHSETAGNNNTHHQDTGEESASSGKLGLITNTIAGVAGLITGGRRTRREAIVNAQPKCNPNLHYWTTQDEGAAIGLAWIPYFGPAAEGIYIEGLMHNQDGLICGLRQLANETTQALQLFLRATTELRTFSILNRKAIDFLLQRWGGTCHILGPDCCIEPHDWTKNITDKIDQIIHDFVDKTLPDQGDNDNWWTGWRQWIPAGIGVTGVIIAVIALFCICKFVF
- experiment: cell-based or functional assay
Exercise: for every item that follows, state its recorded Neutralization (VSV-GP IC50, nM).
Give a bare numeral; the unit nM is implied.

Which Neutralization (VSV-GP IC50, nM) value is on record for mAb PE-24 (antibody, V domains shown) VH: EVQLVESGGGLVQPGGSLRLSCAASGFTFSSYAMSWVRQAPGKGLEWVSEISGLGGSTYYADSAKGRFTISRDNSKSTLYLQMNSLRAEDTAVYYCAKDHRVWAPGYYFDHWGQGTLVTVSS VL: DIVLTQSPSTLSASVGDRVTITCRASQSISSWLAWYQQKPGKAPKLLIYDASSLESGVPSRFSGSGSGTEFTLTISSLQPDDFATYFCQQYNRSPTFGGGTKVEIK ?
0.6

Entry mAb PE-87 (antibody, V domains shown) VH: QVQLVQSGVTLVQPGGSLRVSCAASGFTFSSYAMSWVRQAPGKGLEWVSAISGLGGSTYYADSVKGRFTISRDNSKNTLYLQMNSLRAEDTAVYYCAKDHRVWAAGYHFDYWGQGALVTVSS VL: DIVLTQSPSTLSASVGDRVTITCRASQSISSWLAWYQQKPGEAPKLLISDASSLESGVPSRFSGSGSGTEFTLTISSLQPDDFATYYCQQYYSSPTFGGGTKVEIK please
0.2

Continue with mAb PE-16 (antibody, V domains shown) VH: QVQLVQSGAEVTKPGASVKVSCKASGYTFTTYYMHWVRQAPGQGLEWVGIINPSGGITRYAQKFQGRVTLTRDTSTTTVYMELSSLRSEDTAVYYCARDRYPVLFATDYGMDVWGQGTTVTVSS VL: DIVMTQSPATLSLSPGERATLSCRASQSVSGYLAWYQQKPGQAPRLLIYDASNRATGIPARFSGSGSGTDFTLTISSLEPEDFAVYYCQQRSIWPPGVTFGGGTKVEIK
5.7

Query mAb PE-47 (antibody, V domains shown) VH: EVQLVESGGGLVKPGGSLRLSCAASGFTFSNAWMSWVRQAPGEGLEWVGRIKSKTDGGTIDYAAPVKGRFTISRDDSKNTVYLQMTSLKTEDTAVYYCTTYTEDMQYFDWLLRGGETFDYWGQGTLVTVSS VL: DIQMTQSPSSLSASVGDRVTITCRASQYISTYLNWYQQKPGKAPKLLIYAAYNLQSGVPSRFSGSGSGTDFTLTISSLQPEDFATYYCQQSYSTPGRYTFGQGTKVEIK next
0.08
